Data credit: ChEMBL document CHEMBL5360528

- protocol details: Half life in C57BL/6 mouse plasma at 20 mg/kg, ip by LC-MS/MS analysis
- Assay type: ADME, organism-based

compound	half-life
COC(=O)[C@@H]1C[C@H](OC(C)=O)[C@H](O)[C@H]2[C@@]1(C)CC[C@H]1C(=O)O[C@H](c3ccoc3)C[C@]21C [1-ALPHA-HYDROXYSALVINORIN A]	3.75 h

====

- target or test system: UniProt:P41145
- Sequence (P41145 whole entry): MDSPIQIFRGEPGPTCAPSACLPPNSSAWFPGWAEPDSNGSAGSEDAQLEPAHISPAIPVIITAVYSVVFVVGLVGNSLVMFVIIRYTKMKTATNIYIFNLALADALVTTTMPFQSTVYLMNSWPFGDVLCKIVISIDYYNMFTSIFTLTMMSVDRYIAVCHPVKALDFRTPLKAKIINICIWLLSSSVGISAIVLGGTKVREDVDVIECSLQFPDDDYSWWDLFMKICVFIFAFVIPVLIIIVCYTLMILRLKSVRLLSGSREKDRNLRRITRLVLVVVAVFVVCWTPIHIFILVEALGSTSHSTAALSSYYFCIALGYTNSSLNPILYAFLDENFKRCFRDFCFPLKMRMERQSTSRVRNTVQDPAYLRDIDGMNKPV
- protocol details: Binding affinity to KOR (unknown origin) expressed in CHO-K1 cell membrane assessed as stimulation of [35S]-GTPgammaS binding incubated for 1.5 hrs by scintillation spectroscopy analysis relative DAMGO
- Format: cell membranes
property measured: Ki

compound	target or test system	property measured	recorded result
C[N+]1(CC2CC2)CC[C@]23c4c5ccc(O)c4O[C@H]2C(=O)CC[C@@]3(O)[C@H]1C5 (stereo partly specified) [METHYLNALTREXONE]	UniProt:P41145	Ki	~0.03 µM
